Reported pIC50 values for a set of compounds
Tested on: AGS human gastric adenocarcinoma cells
test-name: MTT cytotoxicity assay, 72 h, gastric adenocarcinoma cells
Type: cell-based
study-conditions: 72 h exposure, six determinations, read-out: IC50 ± SEM AGS
# pIC50: negative log10 of molar concentration; output just the value

Recorded pIC50, per entry:
COC(=O)c1c(C)ncc2c1C(=O)C(Br)=C(NC(C(=O)OC)C(C)C)C2=O (stereo not drawn) [Compound 13a] | 5.72
COC(=O)c1c(C)ncc2c1C(=O)C(N[C@@H](Cc1ccc(O)cc1)C(=O)OC)=CC2=O [Compound 7b] | 5.82
COC(=O)c1c(C)ncc2c1C(=O)C=C(N[C@@H](CCSC)C(=O)OC)C2=O [Compound 5a] | 5.60

Reported pIC50 for COC(=O)c1c(C)ncc2c1C(=O)C=C(N[C@@H](Cc1ccccc1)C(=O)OC)C2=O [Compound 6a] : what is it? 5.73

# query: pIC50 of entry COC(=O)c1c(C)ncc2c1C(=O)C=C(N[C@@H](CC(C)C)C(=O)OC)C2=O [Compound 4a] 5.53

Fill in: pIC50 of COC(=O)c1c(C)ncc2c1C(=O)C(Br)=C(NC(C)C(=O)OC)C2=O (stereo not drawn) [Compound 12] is ___ 5.68

src = paper PMC6274474
